Target: T1, EsCas13d, nuclease-dead (Eubacterium siraeum, UniProt B0MS50, R295A;H300A;R849A;H854A)
T1 sequence: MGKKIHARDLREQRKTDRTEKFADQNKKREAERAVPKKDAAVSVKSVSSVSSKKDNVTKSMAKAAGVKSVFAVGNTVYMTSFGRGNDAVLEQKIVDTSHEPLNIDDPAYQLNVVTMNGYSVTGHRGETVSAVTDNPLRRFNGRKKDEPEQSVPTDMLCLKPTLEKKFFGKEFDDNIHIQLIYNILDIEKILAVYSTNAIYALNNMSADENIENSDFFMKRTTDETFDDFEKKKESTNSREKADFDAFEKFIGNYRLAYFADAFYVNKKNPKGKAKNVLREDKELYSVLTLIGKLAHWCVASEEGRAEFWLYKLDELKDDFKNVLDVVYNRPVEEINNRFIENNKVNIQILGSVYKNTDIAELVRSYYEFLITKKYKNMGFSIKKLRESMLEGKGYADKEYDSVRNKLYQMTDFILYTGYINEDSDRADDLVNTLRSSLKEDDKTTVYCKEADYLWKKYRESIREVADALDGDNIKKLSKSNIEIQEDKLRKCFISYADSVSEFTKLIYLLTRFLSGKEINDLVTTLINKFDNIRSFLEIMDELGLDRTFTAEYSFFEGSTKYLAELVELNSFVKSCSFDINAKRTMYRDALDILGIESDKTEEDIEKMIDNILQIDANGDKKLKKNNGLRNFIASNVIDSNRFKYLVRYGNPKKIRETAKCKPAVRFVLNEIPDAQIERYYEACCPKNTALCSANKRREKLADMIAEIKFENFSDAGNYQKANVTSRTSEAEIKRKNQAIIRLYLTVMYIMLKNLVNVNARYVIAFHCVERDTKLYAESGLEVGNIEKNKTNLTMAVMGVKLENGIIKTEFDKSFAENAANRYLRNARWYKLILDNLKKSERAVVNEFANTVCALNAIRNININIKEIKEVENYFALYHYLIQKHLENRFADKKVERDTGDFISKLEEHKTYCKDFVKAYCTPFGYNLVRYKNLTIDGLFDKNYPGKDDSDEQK
Experiment: crRNA (strand 1, pre-loaded); Mg2+; 40 mM Tris-HCl pH 7.5, 150 mM NaCl, 6 mM MgCl2, 1 mM DTT, 0.1% Tween-20, 0.2 mg/ml BSA; 25 C; 10 min per concentration, then washed
Details: tags: His6-TwinStrep-SUMO cleaved; N-terminal SNAP kept (SNAP-Surface 488); label: 3' end held by stalled T7 RNA polymerase
pKd: −log10 of the molar value.
Property: pKd; scope: individual binders

Example cases with answers are listed next.
target 1 MT 5'PFS GCG 3'PFS CAU (mixed) RNA 1: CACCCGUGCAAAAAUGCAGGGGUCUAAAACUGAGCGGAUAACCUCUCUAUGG RNA 2: GGGAAUGGAUCCACAUCUACGAAUUCGCGCCAUAGAGAGGUUAUCCGCUCACAUAGAUCGGAAGAGCACACGU: ~7.54
target 1 MT 5'PFS GAC 3'PFS AAU (mixed) RNA 1: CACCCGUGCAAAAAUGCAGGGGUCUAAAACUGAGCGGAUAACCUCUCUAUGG RNA 2: GGGAAUGGAUCCACAUCUACGAAUUCGACCCAUAGAGAGGUUAUCCGCUCAAAUAGAUCGGAAGAGCACACGU: ~7.30

Now consider a different binder.
Give the measured pKd of target 1 insC 3' of 8,insA 3' of 8 (mixed) RNA 1: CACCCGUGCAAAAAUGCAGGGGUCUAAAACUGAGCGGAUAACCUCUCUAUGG RNA 2: GGGAAUGGAUCCACAUCUACGAAUUCGUACCAUAGAGAGGUUAUCACCGCUCACCGAGAUCGGAAGAGCACACGU .
8.00
